B1: ZNF232 (parent)
chain: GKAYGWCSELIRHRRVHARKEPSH

Variants of: B1
Test: protein stability index of a GFP-peptide fusion (GPS, HEK-293T) (PSI 1-6); higher = more stable;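 further: lentivirally expressed fusions sorted by FACS into six bins by GFP to DsRed ratio, PSI derived from sequencing read proportions per bin multiplied by bin number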
Details: c terminus: a fixed tail appended
Measured protein stability index of individual entries
Just the number, please, no unit attached.

Answered examples (5):
INSERT INTO assay_data (mutant_designation, measured_metric, value_reported) VALUES
  ('R12Q', 'protein stability index', 3.02),
  ('R14Q', 'protein stability index', 3.08),
  ('A3V', 'protein stability index', 2.97),
  ('A3Q', 'protein stability index', 2.95),
  ('P22L', 'protein stability index', 2.93);

Please turn your attention to the following entry.
Looking up `G1S` , I see its protein stability index listed as 3.08
